- method summary: In vivo plasma pharmacokinetics in mice
- test conditions: mouse plasma, 10 mg/kg i.p. in 20% hydroxypropyl-β-cyclodextrin
quantity kind: T1/2 (h)

CN1Cc2cc(-c3ccc(-c4cncc(NS(=O)(=O)c5ccc(C#N)cc5)c4)s3)ccc2C1=O : 3.3

A. CN1Cc2cc(-c3ccc(-c4cncc(NS(=O)(=O)c5ccccc5[N+](=O)[O-])c4)s3)ccc2C1=O
B. CN1Cc2cc(-c3ccc(-c4cnc(F)c(NS(=O)(=O)c5ccc(F)cc5F)c4)s3)ccc2C1=O
In the pair A and B , the larger recorded T1/2 belongs to which? Selection: enter the item's label.
B
(B: 6.6 h, A: 2.5 h)

* * *

- method summary: Solubility of the sodium salt in water
- Assay type: physicochemical
- test conditions: sodium salt in water at room temperature
quantity kind: solubility at 15 min (mg/mL)

Some solved entries appear below for comparison.
CN1Cc2cc(-c3ccc(-c4cncc(NS(=O)(=O)c5cccc(C(F)(F)F)c5)c4)s3)ccc2C1=O : 0.574
CN1Cc2cc(-c3ccc(-c4cncc(NS(=O)(=O)c5ccccc5[N+](=O)[O-])c4)s3)ccc2C1=O : 0.671

1. CN1Cc2cc(-c3ccc(-c4cnc(F)c(NS(=O)(=O)c5ccc(F)cc5F)c4)s3)ccc2C1=O
2. CN1Cc2cc(-c3ccc(-c4cncc(NS(=O)(=O)c5ccc([N+](=O)[O-])cc5)c4)s3)ccc2C1=O
Which value of solubility at 15 min is greater, the one for 1 or the one for 2 ? Selection: enter the item's label.
2

* * *

quantity kind: melting point

Answered cases to consult:
CN1Cc2cc(-c3ccc(-c4cncc(NS(=O)(=O)c5ccc(C(F)(F)F)cc5Cl)c4)s3)ccc2C1=O : 292 to 295 °C
CN1Cc2cc(-c3ccc(-c4cncc(NS(=O)(=O)c5ccsc5)c4)s3)ccc2C1=O : > 300 °C
CN1Cc2cc(-c3ccc(-c4cncc(NS(=O)(=O)c5ccc(C(F)(F)F)cc5)c4)s3)ccc2C1=O : 282 to 284 °C
CN1Cc2cc(-c3ccc(-c4cncc(N(C)S(=O)(=O)c5ccc(F)cc5F)c4)s3)ccc2C1=O : 200 to 202 °C
CN1Cc2cc(-c3ccc(-c4cncc(NS(=O)(=O)c5cccc(Cl)c5F)c4)s3)ccc2C1=O : 269 to 272 °C

Let me know recorded melting point for "CN1Cc2cc(-c3ccc(-c4cncc(NS(=O)(=O)c5cccs5)c4)s3)ccc2C1=O" , thanks.
300 to 304 °C

Input "CN1Cc2cc(-c3ccc(-c4cncc(NS(=O)(=O)c5ccccc5S(C)(=O)=O)c4)s3)ccc2C1=O" , output reported melting point.
269 to 272 °C

Respond only with melting point recorded for "CN1Cc2cc(-c3ccc(-c4cncc(NS(=O)(=O)c5ccc(F)cc5)c4)s3)ccc2C1=O"
272 to 274 °C

Item "CN1Cc2cc(-c3ccc(-c4cncc(NS(=O)(=O)c5ccc(F)c(F)c5)c4)s3)ccc2C1=O" : provide melting point
282 to 285 °C

For the compound "CN1Cc2cc(-c3ccc(-c4cncc(NS(=O)(=O)c5cccc(Br)c5)c4)s3)ccc2C1=O" , give its reported melting point.
303 to 307 °C

* * *

- method summary: In vivo plasma pharmacokinetics in mice
- test conditions: mouse plasma, 10 mg/kg i.p. in 20% hydroxypropyl-β-cyclodextrin
quantity kind: Cmax (µM)

Here are 2 compounds together with their reported answers.
CN1Cc2cc(-c3ccc(-c4cncc(NS(=O)(=O)c5ccc(C#N)cc5)c4)s3)ccc2C1=O [Compound 50] : 87
CN1Cc2cc(-c3ccc(-c4cnc(Cl)c(NS(=O)(=O)c5ccc(F)cc5F)c4)s3)ccc2C1=O [Compound 11] : 149

A. CN1Cc2cc(-c3ccc(-c4cncc(NS(=O)(=O)c5c(F)cc(F)cc5F)c4)s3)ccc2C1=O [Compound 26]
B. CN1Cc2cc(-c3ccc(-c4cnc(F)c(NS(=O)(=O)c5ccc(F)cc5F)c4)s3)ccc2C1=O [Compound 10]
C. CN1Cc2cc(-c3ccc(-c4cncc(NS(=O)(=O)c5ccc(F)cc5F)c4)s3)ccc2C1=O [Compound 3]
Please give the order of these compounds when sorted by Cmax, largest value leading. The response must list the labels following the requested ordering.
B, A, C
(B: 236 µM, A: 124 µM, C: 10 µM)
